Assay text: Volume of distribution in Sprague-Dawley rat at 1 mg/kg, iv
Format: ADME, organism-based
Parameters: dose 1 mg/kg, route intravenous
Cond: in vivo, read-out: Vss
Assay metric: Vd (L/kg)
Expressed in L/kg, but write only the number.

Q) Report Vd for CNc1ncnc(-c2cccnc2Oc2ccc(F)c(C(=O)Nc3cc(C(F)(F)F)ccc3N(C)CCCN(C)C)c2)n1 please.
A) 2.56

* * *

Target: UniProt:P43403
Sequence (P43403 whole entry): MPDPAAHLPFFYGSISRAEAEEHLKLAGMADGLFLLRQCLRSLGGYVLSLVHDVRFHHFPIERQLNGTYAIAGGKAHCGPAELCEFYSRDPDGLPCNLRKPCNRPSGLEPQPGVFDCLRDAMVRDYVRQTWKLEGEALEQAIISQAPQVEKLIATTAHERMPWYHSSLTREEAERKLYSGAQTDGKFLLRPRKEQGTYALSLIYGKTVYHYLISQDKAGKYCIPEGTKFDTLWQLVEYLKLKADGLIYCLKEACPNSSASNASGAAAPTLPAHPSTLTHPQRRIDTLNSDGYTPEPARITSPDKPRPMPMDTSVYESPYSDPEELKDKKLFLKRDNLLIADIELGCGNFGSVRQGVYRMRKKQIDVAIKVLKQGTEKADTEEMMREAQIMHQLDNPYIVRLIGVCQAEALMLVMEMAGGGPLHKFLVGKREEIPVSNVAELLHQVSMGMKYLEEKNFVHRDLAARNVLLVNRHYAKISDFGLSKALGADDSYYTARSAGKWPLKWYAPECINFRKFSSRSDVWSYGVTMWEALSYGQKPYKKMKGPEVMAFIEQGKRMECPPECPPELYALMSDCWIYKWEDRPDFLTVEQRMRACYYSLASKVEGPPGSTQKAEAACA
Assay metric: IC50 (µM)
Give just the number in µM; leave the unit off.

Q) Param item = CNc1ncnc(-c2cccnc2Oc2ccc(F)c(C(=O)Nc3cc(C(F)(F)F)ccc3N(C)CCCN(C)C)c2)n1 ; retrieve measured IC50.
A) 25

* * *

Target: Angiopoietin-1 receptor (Homo sapiens, UniProt Q02763)
Sequence (Q02763 whole entry): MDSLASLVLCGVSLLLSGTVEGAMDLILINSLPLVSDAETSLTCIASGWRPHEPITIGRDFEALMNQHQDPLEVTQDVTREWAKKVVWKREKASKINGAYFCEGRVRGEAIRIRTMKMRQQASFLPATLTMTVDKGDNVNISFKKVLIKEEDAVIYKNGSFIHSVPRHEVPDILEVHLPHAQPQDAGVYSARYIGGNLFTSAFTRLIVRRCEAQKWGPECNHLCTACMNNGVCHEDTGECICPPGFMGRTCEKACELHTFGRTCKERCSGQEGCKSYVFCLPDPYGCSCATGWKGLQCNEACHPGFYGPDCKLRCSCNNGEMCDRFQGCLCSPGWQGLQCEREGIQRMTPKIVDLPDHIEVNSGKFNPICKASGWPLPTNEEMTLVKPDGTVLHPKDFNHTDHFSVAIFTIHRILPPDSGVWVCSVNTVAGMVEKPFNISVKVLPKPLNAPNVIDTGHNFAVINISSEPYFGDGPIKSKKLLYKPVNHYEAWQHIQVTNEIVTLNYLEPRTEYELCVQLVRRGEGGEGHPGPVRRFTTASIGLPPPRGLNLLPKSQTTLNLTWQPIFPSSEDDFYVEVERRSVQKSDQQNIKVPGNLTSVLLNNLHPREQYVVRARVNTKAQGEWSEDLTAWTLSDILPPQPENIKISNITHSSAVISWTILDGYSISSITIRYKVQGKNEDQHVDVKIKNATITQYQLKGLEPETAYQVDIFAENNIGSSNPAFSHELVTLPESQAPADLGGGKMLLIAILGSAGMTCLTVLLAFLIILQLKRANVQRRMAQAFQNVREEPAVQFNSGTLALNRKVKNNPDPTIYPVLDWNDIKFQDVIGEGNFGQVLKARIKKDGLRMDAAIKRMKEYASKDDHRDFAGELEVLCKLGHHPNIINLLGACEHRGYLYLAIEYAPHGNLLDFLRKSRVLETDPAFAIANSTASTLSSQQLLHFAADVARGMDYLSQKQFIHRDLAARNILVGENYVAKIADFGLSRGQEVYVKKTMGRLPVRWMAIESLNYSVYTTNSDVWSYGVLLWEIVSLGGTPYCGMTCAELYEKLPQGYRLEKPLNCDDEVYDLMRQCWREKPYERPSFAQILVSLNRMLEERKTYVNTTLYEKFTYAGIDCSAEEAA
Assay text: Inhibition of Tie2 by HTRF assay
Assay metric: pIC50
FYI, pIC50 means -log10 of a concentration in mol per litre.

Study these solved cases before continuing.
[[record]]
smiles_str = "COc1cc(Nc2ncnc(-c3cccnc3Nc3cccc(C(=O)Nc4ccc(Oc5ccccc5)cc4)c3)n2)cc(OC)c1OC"
target = "Angiopoietin-1 receptor (Homo sapiens, UniProt Q02763)"
assay_metric = "pIC50"
assay_result = 7.07

[[record]]
smiles_str = "CNc1nccc(-c2cccnc2Oc2cccc(C(=O)Nc3cc(C(F)(F)F)ccc3N3CCCCC3)c2)n1"
target = "Angiopoietin-1 receptor (Homo sapiens, UniProt Q02763)"
assay_metric = "pIC50"
assay_result = 7.00

[[record]]
smiles_str = "CNc1ncnc(-c2cccnc2Oc2cc(C(=O)Nc3cc(C(F)(F)F)ccc3N(C)CCCN(C)C)ccc2C)n1"
target = "Angiopoietin-1 receptor (Homo sapiens, UniProt Q02763)"
assay_metric = "pIC50"
assay_result = 7.23

[[record]]
smiles_str = "CNc1nccc(-c2cccnc2Oc2ccc(F)c(C(=O)Nc3cc(C(F)(F)F)ccc3N3CCCCC3)c2)n1"
target = "Angiopoietin-1 receptor (Homo sapiens, UniProt Q02763)"
assay_metric = "pIC50"
assay_result = 7.40

[[record]]
smiles_str = "CNc1nccc(-c2cc(C)cnc2Oc2cccc(C(=O)Nc3cc(C(F)(F)F)ccc3N3CCCCC3)c2C)n1"
target = "Angiopoietin-1 receptor (Homo sapiens, UniProt Q02763)"
assay_metric = "pIC50"
assay_result = 6.41

[[record]]
smiles_str = "CNc1ncnc(-c2cccnc2Oc2cc(C(=O)Nc3cccc(C(F)(F)F)c3)ccc2C)n1"
target = "Angiopoietin-1 receptor (Homo sapiens, UniProt Q02763)"
assay_metric = "pIC50"
assay_result = 8.00

[[record]]
smiles_str = "CNc1ncnc(-c2cccnc2Oc2ccc(F)c(C(=O)Nc3cc(C4CC4)ccc3N(C)CCCN(C)C)c2)n1"
target = "Angiopoietin-1 receptor (Homo sapiens, UniProt Q02763)"
assay_metric = "pIC50"
assay_result = 7.89

[[record]]
smiles_str = "Cc1ccc(C(=O)Nc2cc(C(F)(F)F)ccc2N2CCCCC2)cc1Nc1ncccc1-c1ccncn1"
target = "Angiopoietin-1 receptor (Homo sapiens, UniProt Q02763)"
assay_metric = "pIC50"
assay_result = 6.74

[[record]]
smiles_str = "Cc1ccc(C(=O)Nc2ccc(C(F)(F)F)cc2)cc1Nc1ncccc1-c1ccncn1"
target = "Angiopoietin-1 receptor (Homo sapiens, UniProt Q02763)"
assay_metric = "pIC50"
assay_result = 6.30

[[record]]
smiles_str = "CNc1ncnc(-c2cccnc2Oc2cc(C(=O)Nc3cc(C4CCCCC4)ccc3OC)ccc2C)n1"
target = "Angiopoietin-1 receptor (Homo sapiens, UniProt Q02763)"
assay_metric = "pIC50"
assay_result = 7.66


Turning now to a further compound:
Q) Quick check: pIC50 on Angiopoietin-1 receptor (Homo sapiens, UniProt Q02763), item CNc1ncnc(-c2cccnc2Oc2ccc(F)c(C(=O)Nc3cc(C(F)(F)F)ccc3N(C)CCCN(C)C)c2)n1 ?
A) 7.52

Where these numbers come from: ChEMBL document CHEMBL1141380
